procedure.details: NCI Yeast Anticancer Drug Screen. Data for the rad14 strain (AID 159);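 note: 0% = growth of vehicle-treated control cultures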
test.conditions: S. cerevisiae rad14 strain growth inhibition; at 11.0 µM
The panel holds about 79,000 compounds, 15% with a hit somewhere; the sample as a whole holds those more often. Calls of active or inactive are those of the source. Cut-off read from the data, not from the text of the source: active = growth inhibition above about 70%; inactive = the rest.
Outcomes: 1 (active), -1 (inactive)

INSERT INTO assay_data (molecule, class_assignment) VALUES
  ('CC1CCN(CCC(=O)c2ccc([N+](=O)[O-])cc2)CC1', -1),
  ('O=C1C(CCSc2ccccc2)C(=O)N(c2ccccc2)C1c1ccccc1 (stereo unspecified)', -1),
  ('CN(N=O)C(=O)Nc1ccc(C(=O)O)cc1', -1),
  ('c1ccc2c(c1)ccn2CCc1c[nH]c2ccccc12', -1),
  ('O=C(/N=N/C(=O)Oc1ccccc1)Oc1ccccc1', -1),
  ('O=[N+]([O-])c1ccc2[nH]c3c(-c4ccccc4)nccc3c2c1', 1);
